- Tested on: NCI-H460
- Assay details: relative viability (nuclei count vs DMSO), 5 days (fraction); higher = more cells survive
- Run parameters: first compound 0.5 µM
Assay readout: relative viability
One number for each entry.

Previously resolved entries follow.
- Molecule: "CC1(C)CCC(c2ccc(Cl)cc2)=C(CN2CCN(c3ccc(C(=O)NS(=O)(=O)c4ccc(N[C@H](CCN5CCOCC5)CSc5ccccc5)c(S(=O)(=O)C(F)(F)F)c4)cc3)CC2)C1 [Navitoclax] + C[C@@H](Oc1cc(-c2cnn(C3CCNCC3)c2)cnc1N)c1c(Cl)ccc(F)c1Cl [Crizotinib] (partner 1 µM)"
  Target: "NCI-H460"
  Assay result: 0.874
- Molecule: "CC1(C)CCC(c2ccc(Cl)cc2)=C(CN2CCN(c3ccc(C(=O)NS(=O)(=O)c4ccc(N[C@H](CCN5CCOCC5)CSc5ccccc5)c(S(=O)(=O)C(F)(F)F)c4)cc3)CC2)C1 [Navitoclax] + CC(C)C[C@H](NC(=O)[C@H](Cc1ccccc1)NC(=O)c1cnccn1)B(O)O [Bortezomib] (partner 0.002 µM)"
  Target: "NCI-H460"
  Assay result: 0.983
- Molecule: "CC1(C)CCC(c2ccc(Cl)cc2)=C(CN2CCN(c3ccc(C(=O)NS(=O)(=O)c4ccc(N[C@H](CCN5CCOCC5)CSc5ccccc5)c(S(=O)(=O)C(F)(F)F)c4)cc3)CC2)C1 [Navitoclax] + Nc1ncn([C@H]2C[C@H](O)[C@@H](CO)O2)c(=O)n1 [Decitabine] (partner 2 µM)"
  Target: "NCI-H460"
  Assay result: 0.444
- Molecule: "CC1(C)CCC(c2ccc(Cl)cc2)=C(CN2CCN(c3ccc(C(=O)NS(=O)(=O)c4ccc(N[C@H](CCN5CCOCC5)CSc5ccccc5)c(S(=O)(=O)C(F)(F)F)c4)cc3)CC2)C1 [Navitoclax] + CC(=O)c1c(C)c2cnc(Nc3ccc(N4CCNCC4)cn3)nc2n(C2CCCC2)c1=O [Palbociclib] (partner 0.5 µM)"
  Target: "NCI-H460"
  Assay result: 0.13
- Molecule: "CC1(C)CCC(c2ccc(Cl)cc2)=C(CN2CCN(c3ccc(C(=O)NS(=O)(=O)c4ccc(N[C@H](CCN5CCOCC5)CSc5ccccc5)c(S(=O)(=O)C(F)(F)F)c4)cc3)CC2)C1 [Navitoclax] + Cc1cc(Nc2cc(N3CCN(C)CC3)nc(Sc3ccc(NC(=O)C4CC4)cc3)n2)n[nH]1 [Tozasertib] (partner 0.1 µM)"
  Target: "NCI-H460"
  Assay result: 0.397

I have 2 molecules here; please give me relative viability for each one.
1. CC1(C)CCC(c2ccc(Cl)cc2)=C(CN2CCN(c3ccc(C(=O)NS(=O)(=O)c4ccc(N[C@H](CCN5CCOCC5)CSc5ccccc5)c(S(=O)(=O)C(F)(F)F)c4)cc3)CC2)C1 [Navitoclax] + NC(=O)Nc1cc(-c2cccc(F)c2)sc1C(=O)N[C@H]1CCCNC1 [AZD7762] (partner 0.2 µM)
2. CC1(C)CCC(c2ccc(Cl)cc2)=C(CN2CCN(c3ccc(C(=O)NS(=O)(=O)c4ccc(N[C@H](CCN5CCOCC5)CSc5ccccc5)c(S(=O)(=O)C(F)(F)F)c4)cc3)CC2)C1 [Navitoclax] + COc1cccc2cc(-c3nc([C@H]4CC[C@H](C(=O)O)CC4)n4ncnc(N)c34)[nH]c12 [OSI-027] (partner 0.5 µM)

## Output
1. 0.532
2. 0.671
